Subject of test: T1, Human VEGF-A 165 (human, UniProt P15692 207-395)
T1 construct: also called hVEGF165; huVEGF-A165
Assay name: Biacore SPR (Example 1.1)
Result type: pKd
Answer as the number alone; pKd is minus log10 of concentration in mol/L.

Some entries whose results are on file:
Binder	pKd
BEW-9E7-B4 (antibody, IgG2b, V domains shown) VH: QIQLVQSGPELKKPGESVKISCKASGYTFTNYGMYWVKQAPGQGLQYMGWIDTETGKPTYADDFKGRFVFFLETSASTAYLQINNLRNEDMATYFCARWGYTSDYYYGWFPDWGQGTLVTVST VL: DTVLTQSPALAVSPGERVSISCRASEGVNSYMHWYQQNPGQQPKLLIYKASNLASGVPARFSGSGSGTDFTLNIHPVEADDTATYFCQQNWNVPLTFGSGTKLEIK	11.37
BEW-5C3-E7 (antibody, IgG2b, V domains shown) VH: QIQLVQSGPELKKPGESVKISCKASGYTFTNYGVYWVKQAPGQGLQYMGWINTETGKPTYADDFKGRFVFFLETSTNTAYLQINNLKNEDMATFFCARARQLDWFVYWGQGTLVTVSS VL: DTVLTQSPALTVSPGERVSISCRARESLTTSLCWFQQKPGQQPKLLIYGASKLESGVPARFSGSGSGTDFTLTIDPVEADDTATYFCQQSWYDPPTFGGGTKLELK	11.41

Query binder follows.
BEW-9E10-E7 (antibody, IgG2a, V domains shown) VH: QIQLLQSGPELKKPGESVKISCKASGYTFTNYGMYWVKQAPGQGLQYMGWIDTETGRPTYADDFKGRFVFFLETSASTAYLQINNLKNEDMATYFCARWSGDTTGIRGPWFAYWGQGTLVTVSS VL: DIRMTQSPASLSASLGETVNIECLASEDIYSDLAWYQQKPGRSPQLLIYNANGLQNGVPSRFGGSGSGTQYSLKINSLQSEDVATYFCQQYNYFPGTFGAGTKLELK yielded pKd of 11.51
